The values you see were collected from PubChem BioAssay (Tox21).

tgt: Acetylcholinesterase (Homo sapiens) (UniProt P22303)
Sequence (P22303 whole entry, looked up): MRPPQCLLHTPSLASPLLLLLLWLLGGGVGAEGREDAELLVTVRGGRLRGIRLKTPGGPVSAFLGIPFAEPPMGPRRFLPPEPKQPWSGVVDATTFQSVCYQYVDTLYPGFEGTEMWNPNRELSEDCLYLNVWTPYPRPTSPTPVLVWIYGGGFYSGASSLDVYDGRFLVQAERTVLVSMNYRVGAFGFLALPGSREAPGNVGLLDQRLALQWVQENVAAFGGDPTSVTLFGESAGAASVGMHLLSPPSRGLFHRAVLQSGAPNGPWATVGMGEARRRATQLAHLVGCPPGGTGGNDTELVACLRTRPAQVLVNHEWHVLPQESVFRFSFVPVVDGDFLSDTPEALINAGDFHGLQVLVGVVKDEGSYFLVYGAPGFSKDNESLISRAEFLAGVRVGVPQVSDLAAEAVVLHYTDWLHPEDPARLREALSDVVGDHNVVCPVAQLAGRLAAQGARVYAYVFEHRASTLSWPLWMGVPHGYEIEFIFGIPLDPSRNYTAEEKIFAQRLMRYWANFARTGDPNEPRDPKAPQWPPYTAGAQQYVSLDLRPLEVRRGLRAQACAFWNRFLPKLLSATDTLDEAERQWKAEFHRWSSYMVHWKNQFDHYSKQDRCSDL
protocol.summary: Acetylcholinesterase (AChE) small molecule antagonists: colormetric cell-based qHTS assay (AID 1347395); further: nearly all actives have a fitted effect of over 30% in size
measurement.parameters: SH-SY5Y cells AChE activity, colorimetric (Ellman); series mostly up to 115 µM
Records with an inconclusive call do not appear. Calls of active or inactive are those of the source. The call rests on the fitted dose curve.
Outcomes: y (active), n (inactive)

compound | tgt | qualitative.label
O=C(Cl)C(Cl)Cl | Acetylcholinesterase (Homo sapiens) (UniProt P22303) | n
O=C(O)c1c(Cl)ccc2cc(Cl)cnc12 | Acetylcholinesterase (Homo sapiens) (UniProt P22303) | n
Cl/C=C/CCl | Acetylcholinesterase (Homo sapiens) (UniProt P22303) | n
COc1cccc(C=O)c1 | Acetylcholinesterase (Homo sapiens) (UniProt P22303) | n
CC[C@@H](CO)NC(=O)[C@@H]1C=C2c3cccc4c3c(cn4C)C[C@H]2N(C)C1 | Acetylcholinesterase (Homo sapiens) (UniProt P22303) | y
CC(C)(O)C(Cl)(Cl)Cl | Acetylcholinesterase (Homo sapiens) (UniProt P22303) | n
CNC(=O)O/N=C(/CSC)C(C)(C)C | Acetylcholinesterase (Homo sapiens) (UniProt P22303) | y
O=c1[nH]oc2c1CCNC2 | Acetylcholinesterase (Homo sapiens) (UniProt P22303) | n
CCCCOC(C)=O | Acetylcholinesterase (Homo sapiens) (UniProt P22303) | n
O=P(O)(O)CN(CP(=O)(O)O)CP(=O)(O)O | Acetylcholinesterase (Homo sapiens) (UniProt P22303) | n
C(COCC1CO1)OCC1CO1 (stereo not drawn) | Acetylcholinesterase (Homo sapiens) (UniProt P22303) | n
ClC1=C(Cl)C2(Cl)C(CBr)CC1(Cl)C2(Cl)Cl (stereo not drawn) | Acetylcholinesterase (Homo sapiens) (UniProt P22303) | n
CN(C)C1CCCCC1 | Acetylcholinesterase (Homo sapiens) (UniProt P22303) | n
CCOC(=O)N(C)N=O | Acetylcholinesterase (Homo sapiens) (UniProt P22303) | n
CON(C)C(=O)Nc1ccc(Br)cc1 | Acetylcholinesterase (Homo sapiens) (UniProt P22303) | n
CCCC[N+](=O)[O-] | Acetylcholinesterase (Homo sapiens) (UniProt P22303) | n
CNC(=O)NC(O)C(Cl)(Cl)Cl (stereo not drawn) | Acetylcholinesterase (Homo sapiens) (UniProt P22303) | n
COP(=O)(OC)O/C(C)=C/C(=O)N(C)C | Acetylcholinesterase (Homo sapiens) (UniProt P22303) | y
ClCCCCCCCl | Acetylcholinesterase (Homo sapiens) (UniProt P22303) | n
O=C(CCl)NCO | Acetylcholinesterase (Homo sapiens) (UniProt P22303) | n
Clc1ccc(C(Cl)(Cl)Cl)cn1 | Acetylcholinesterase (Homo sapiens) (UniProt P22303) | n
CC(O)CCl (stereo not drawn) | Acetylcholinesterase (Homo sapiens) (UniProt P22303) | n
ClCC1CO1 (stereo not drawn) | Acetylcholinesterase (Homo sapiens) (UniProt P22303) | n
CCC(C)C(C)(COC(N)=O)COC(N)=O (stereo not drawn) | Acetylcholinesterase (Homo sapiens) (UniProt P22303) | n
CON(C)C(=O)Nc1ccc(Br)c(Cl)c1 | Acetylcholinesterase (Homo sapiens) (UniProt P22303) | n
CNC(=O)Oc1ccccc1C(C)C | Acetylcholinesterase (Homo sapiens) (UniProt P22303) | y
Cn1c(CCCC(=O)O)nc2cc(N(CCCl)CCCl)ccc21 | Acetylcholinesterase (Homo sapiens) (UniProt P22303) | n
CCCN1CCC[C@@H]2Cc3[nH]ncc3C[C@H]21 | Acetylcholinesterase (Homo sapiens) (UniProt P22303) | y
COC(=O)[C@@H](N)CCCN/C(N)=N/[N+](=O)[O-] | Acetylcholinesterase (Homo sapiens) (UniProt P22303) | n
O=C(O)CBr | Acetylcholinesterase (Homo sapiens) (UniProt P22303) | n
CCN[C@H](C)Cc1cccc(C(F)(F)F)c1 | Acetylcholinesterase (Homo sapiens) (UniProt P22303) | n
NNC(N)=O | Acetylcholinesterase (Homo sapiens) (UniProt P22303) | n
NCC1(CC(=O)O)CCCCC1 | Acetylcholinesterase (Homo sapiens) (UniProt P22303) | n
